# MEASUREMENT_SETUP: Low dose (75 mg/kg bw); urine; mean ± SD
MEASURED_PARAMETER: Cmax (nmol excreted)

compound="O=C(O)CNC(=O)c1ccccc1 [Hippuric acid, hippuric acid]" measured_parameter="Cmax (nmol excreted)" result=np
compound="COc1cc(-c2[o+]c3cc(O)cc(O)c3cc2O[C@@H]2O[C@H](CO)[C@@H](O)[C@H](O)[C@H]2O)cc(O)c1O [Petunidin Glucoside, petunidin-3-O-glucoside]" measured_parameter="Cmax (nmol excreted)" result=np
compound="O=C(O)Cc1ccc(O)cc1 [4-OH-PAA, 4-hydroxyphenylacetic acid]" measured_parameter="Cmax (nmol excreted)" result="0.30 ± 0.12 nmol excreted"
compound="COc1cc(-c2[o+]c3cc(O)cc(O)c3cc2O[C@@H]2O[C@H](CO)[C@H](O)[C@H](O)[C@H]2O)cc(OC)c1O [Malvidin Galactoside, malvidin-3-O-galactoside]" measured_parameter="Cmax (nmol excreted)" result=np
compound="OC[C@H]1O[C@@H](Oc2cc3c(O)cc(O)cc3[o+]c2-c2ccc(O)c(O)c2)[C@H](O)[C@@H](O)[C@H]1O [Cyanidin Galactoside]" measured_parameter="Cmax (nmol excreted)" result=np
compound="O=c1c(O)c(-c2ccc(O)c(O)c2)oc2cc(O)cc(O)c12 [Quercetin, quercetin]" measured_parameter="Cmax (nmol excreted)" result="3.88 ± 1.46 nmol excreted"
compound="O=C(O)/C=C/c1ccc(O)c(O)c1 [Caffeic acid, caffeic acid]" measured_parameter="Cmax (nmol excreted)" result=np
compound="O=C(O)CCc1cccc(O)c1 [3-OH-PPA, 3-hydroxyphenylpropionic acid]" measured_parameter="Cmax (nmol excreted)" result="25.4 ± 6.9 nmol excreted"

====

# MEASUREMENT_SETUP: Medium dose (350 mg/kg bw); urine; mean ± SD
Counter-ions that a name gives are not always drawn.
As shown below, each of these compounds has a reported Cmax (nmol excreted) value.
MEASURED_PARAMETER: Cmax (nmol excreted)

compound="O=C(O)/C=C/c1ccc(O)c(O)c1 [Caffeic acid, caffeic acid]" result="3.18 ± 1.64 nmol excreted"
compound="COc1cc(-c2[o+]c3cc(O)cc(O)c3cc2O[C@@H]2O[C@H](CO)[C@H](O)[C@H](O)[C@H]2O)cc(OC)c1O [Malvidin Galactoside, malvidin-3-O-galactoside]" result="7.36 ± 2.00 nmol excreted"
compound="COc1cc(-c2[o+]c3cc(O)cc(O)c3cc2O[C@@H]2O[C@H](CO)[C@@H](O)[C@H](O)[C@H]2O)cc(OC)c1O [Malvidin Glucoside, malvidin-3-O-glucoside]" result="6.57 ± 0.57 nmol excreted"
compound="O=C(O)CCc1cccc(O)c1 [3-OH-PPA, 3-hydroxyphenylpropionic acid]" result="177 ± 24 nmol excreted"
compound="O=c1c(O)c(-c2ccc(O)c(O)c2)oc2cc(O)cc(O)c12 [Quercetin, quercetin]" result="10.1 ± 7.4 nmol excreted"
compound="OC[C@H]1O[C@@H](Oc2cc3c(O)cc(O)cc3[o+]c2-c2cc(O)c(O)c(O)c2)[C@H](O)[C@@H](O)[C@@H]1O [Delphinidin Glucoside, delphindin-3-O-glucoside]" result="0.81 ± 0.14 nmol excreted"
compound="O=C(O[C@@H]1O[C@H](C(=O)O)[C@@H](O)[C@H](O)[C@H]1O)c1ccccc1 [BzA glucuronide]" result="0.85 ± 0.17 nmol excreted"
compound="COc1cc(-c2[o+]c3cc(O)cc(O)c3cc2OC2OC(CO)C(O)C(O)C2O)cc(O)c1O (stereo not drawn) [Petunidin Galactoside, petunidin-3-O-galactoside]" result="0.49 ± 0.23 nmol excreted"
compound="COc1ccc(CCC(=O)O)cc1O [3-OH-4-OMe-PPA, 3-hydroxy-4-methoxyphenylpropionic acid]" result="2.69 ± 1.83 nmol excreted"
compound="COc1cc(/C=C/C(=O)O)ccc1OS(=O)(=O)O [Ferulic acid sulfate]" result="7.41 ± 3.52 nmol excreted"
compound="O=C(O)Cc1ccc(O)cc1 [4-OH-PAA, 4-hydroxyphenylacetic acid]" result="0.84 ± 0.38 nmol excreted"
compound="O=C(/C=C/c1ccc(O)c(O)c1)O[C@@H]1C[C@](O)(C(=O)O)C[C@@H](O)[C@H]1O [Chlorogenic acid, chlorogenic acid]" result="66.1 ± 23.4 nmol excreted"
